Test system: E. coli ATCC 25922
Experiment: microbe, parasite or virus in culture
Details: ATCC 25922, 18 h
Where a SMILES comes first, the peptide text is derived from it. Bridges are numbered along the chain shown (N, C = ends). [ ]: non-standard residue; d: D form. The star is where a group is joined. dDab = NCC[C@@H](N)C(=O)O; Octanoyl = CCCCCCCC(=O)*; Orn = NCCC[C@H](N)C(=O)O; Dab = NCC[C@H](N)C(=O)O
Give measured MIC E. coli ATCC 25922 for each item. Keep answers brief.
Express the result in µg/mL but write the number alone.

CCCCCCCC(=O)N[C@@H](Cc1ccc(O)cc1)C(=O)N[C@H](CCN)C(=O)N[C@H]1CCNC(=O)[C@H]([C@@H](C)O)NC(=O)[C@H](CCN)NC(=O)[C@H](CCN)NC(=O)[C@H](CC(C)C)NC(=O)[C@@H](Cc2ccccc2)NC(=O)[C@H](CCN)NC1=O [Compound 29] (Octanoyl-Y[dDab][Dab][Dab][dF]L[Dab][Dab]T; lactam 3-C) has a reported MIC E. coli ATCC 25922 of 16

Looking up CCCCCCCC(=O)N[C@H](C(=O)N[C@@H](CCCCN)C(=O)N[C@H]1CCNC(=O)[C@H]([C@@H](C)O)NC(=O)[C@H](CCN)NC(=O)[C@H](CCN)NC(=O)[C@H](CC(C)C)NC(=O)[C@@H](Cc2ccccc2)NC(=O)[C@H](CCN)NC1=O)[C@@H](C)O [Compound 42] (Octanoyl-TK[Dab][Dab][dF]L[Dab][Dab]T; lactam 3-C) , I found its MIC E. coli ATCC 25922 recorded as 4

Measured MIC E. coli ATCC 25922, CCCCCCCC(=O)N[C@H](C(=O)N[C@@H](CCCN)C(=O)N[C@H]1CCNC(=O)[C@H]([C@@H](C)O)NC(=O)[C@H](CCN)NC(=O)[C@H](CCN)NC(=O)[C@H](CC(C)C)NC(=O)[C@@H](Cc2ccccc2)NC(=O)[C@H](CCN)NC1=O)[C@@H](C)O [Compound 40] (Octanoyl-T[Orn][Dab][Dab][dF]L[Dab][Dab]T; lactam 3-C) : 2

###

Tested on: K. pneumoniae ATCC 13833
Assay: microbe, parasite or virus in culture
Conditions: ATCC 13833, 18 h
Where a SMILES comes first, the peptide text is derived from it. Bridges are numbered along the chain shown (N, C = ends). [ ]: non-standard residue; d: D form. The star is where a group is joined. X1 = CCCCCC1CCC(C(=O)*)CC1; dDab = NCC[C@@H](N)C(=O)O; hSer = N[C@@H](CCO)C(=O)O; Octanoyl = CCCCCCCC(=O)*; Orn = NCCC[C@H](N)C(=O)O; Dab = NCC[C@H](N)C(=O)O
quantity.measured: MIC K. pneumoniae ATCC 13833

Documented MIC K. pneumoniae ATCC 13833 of CCCCCCCC(=O)N[C@@H](CCN)C(=O)N[C@H](C(=O)N[C@@H](CCN)C(=O)N[C@H]1CCNC(=O)[C@H]([C@@H](C)O)NC(=O)[C@H](CCN)NC(=O)[C@H](CCN)NC(=O)[C@H](CC(C)C)NC(=O)[C@@H](Cc2ccccc2)NC(=O)[C@H](CCN)NC1=O)[C@@H](C)O [PmxB3, polymyxin B3, reference compound] (Octanoyl-[Dab]T[Dab][Dab][Dab][dF]L[Dab][Dab]T; lactam 4-C) : 2 µg/mL

The measured MIC K. pneumoniae ATCC 13833 associated with CCCCCCCC(=O)N[C@@H](CCN)C(=O)N[C@H](C(=O)N[C@H]1CCNC(=O)[C@H]([C@@H](C)O)NC(=O)[C@H](CCN)NC(=O)[C@H](CCN)NC(=O)[C@H](CC(C)C)NC(=O)[C@@H](Cc2ccccc2)NC(=O)[C@H](CCN)NC1=O)[C@@H](C)O [Compound 9] (Octanoyl-[Dab]T[Dab][Dab][dF]L[Dab][Dab]T; lactam 3-C) reads >32 µg/mL

Kindly note the recorded MIC K. pneumoniae ATCC 13833 for CCCCCCCC(=O)N[C@H](C(=O)N[C@@H](CCN)C(=O)N[C@H]1CCCNC(=O)[C@H]([C@@H](C)O)NC(=O)[C@H](CCN)NC(=O)[C@H](CCN)NC(=O)[C@H](CC(C)C)NC(=O)[C@@H](Cc2ccccc2)NC(=O)[C@H](CCN)NC1=O)[C@@H](C)O [Compound 17] (Octanoyl-T[Dab][Orn][Dab][dF]L[Dab][Dab]T; lactam 3-C) , which is 32 µg/mL

# compound CC(C)C[C@@H]1NC(=O)[C@@H](Cc2ccccc2)NC(=O)[C@H](CCN)NC(=O)[C@@H](NC(=O)[C@H](CCN)NC(=O)[C@@H](N)[C@@H](C)O)CCNC(=O)[C@H]([C@@H](C)O)NC(=O)[C@H](CCN)NC(=O)[C@H](CCN)NC1=O [PMBN, polymyxin B nonapeptide, reference compound] (H-T[Dab][Dab][Dab][dF]L[Dab][Dab]T; lactam 3-C (inferred)) ; its MIC K. pneumoniae ATCC 13833 = >32 µg/mL

MIC K. pneumoniae ATCC 13833 for CCCCCCCC(=O)N[C@@H](CCO)C(=O)N[C@H](CCN)C(=O)N[C@H]1CCNC(=O)[C@H]([C@@H](C)O)NC(=O)[C@H](CCN)NC(=O)[C@H](CCN)NC(=O)[C@H](CC(C)C)NC(=O)[C@@H](Cc2ccccc2)NC(=O)[C@H](CCN)NC1=O [Compound 31] (Octanoyl-[hSer][dDab][Dab][Dab][dF]L[Dab][Dab]T; lactam 3-C) is >32 µg/mL

So, CCCCCC1CCC(C(=O)N[C@H](C(=O)N[C@H](CCN)C(=O)N[C@H]2CCNC(=O)[C@H]([C@@H](C)O)NC(=O)[C@H](CCN)NC(=O)[C@H](CCN)NC(=O)[C@H](CC(C)C)NC(=O)[C@@H](Cc3ccccc3)NC(=O)[C@H](CCN)NC2=O)[C@@H](C)O)CC1 (stereo partly drawn) [Compound 24] (X1-T[dDab][Dab][Dab][dF]L[Dab][Dab]T; lactam 3-C) ? Its MIC K. pneumoniae ATCC 13833 was >32 µg/mL

###

Test system: K. pneumoniae ATCC 700603
Experiment: microbe, parasite or virus in culture
Details: ATCC 700603, 18 h
Procedure: All compounds synthesised in this study were assessed for their minimum inhibitory concentrations (MIC, mg/L) by broth microdilution assay against five antibiotic-sensitive and resistant ATCC reference strains covering the Gram-negative ESKAPE pathogens (Escherichia coli, Klebsiella pneumoniae, A. baumannii, and P. aeruginosa) (Table 1, Table 2 and Table 3). Staphylococcus aureus was also included as a representative Gram-positive bacterial strain. […]
Where a SMILES comes first, the peptide text is derived from it. Bridges are numbered along the chain shown (N, C = ends). [ ]: non-standard residue; d: D form. The star is where a group is joined. Isonicotinoyl(2-Ph) = O=C(c1ccnc(-c2ccccc2)c1)*; Octanoyl = CCCCCCCC(=O)*; Dab = NCC[C@H](N)C(=O)O; Dap = NC[C@H](N)C(=O)O
quantity.measured: MIC K. pneumoniae ATCC 700603 (µg/mL)
# output: bare number, implied unit µg/mL

Query CCCCCCCC(=O)N[C@H](C(=O)N[C@@H](CN)C(=O)N[C@H]1CCNC(=O)[C@H]([C@@H](C)O)NC(=O)[C@H](CCN)NC(=O)[C@H](CCN)NC(=O)[C@H](CC(C)C)NC(=O)[C@@H](Cc2ccccc2)NC(=O)[C@H](CCN)NC1=O)[C@@H](C)O [Compound 39] (Octanoyl-T[Dap][Dab][Dab][dF]L[Dab][Dab]T; lactam 3-C) yields MIC K. pneumoniae ATCC 700603 of 1

// field: MIC K. pneumoniae ATCC 700603; key: CC(C)C[C@@H]1NC(=O)[C@@H](Cc2ccccc2)NC(=O)[C@H](CCN)NC(=O)[C@@H](NC(=O)[C@H](CCN)NC(=O)[C@@H](NC(=O)c2ccnc(-c3ccccc3)c2)[C@@H](C)O)CCNC(=O)[C@H]([C@@H](C)O)NC(=O)[C@H](CCN)NC(=O)[C@H](CCN)NC1=O [Compound 10] ({Isonicotinoyl(2-Ph)}-T[Dab][Dab][Dab][dF]L[Dab][Dab]T; lactam 3-C) ; value = 16

###

Tested on: E. coli ATCC 25922
Assay: microbe, parasite or virus in culture
Conditions: ATCC 25922, 18 h
Where a SMILES comes first, the peptide text is derived from it. Bridges are numbered along the chain shown (N, C = ends). [ ]: non-standard residue; d: D form. The star is where a group is joined. Benzoyl(3-Ph) = O=C(c1cccc(-c2ccccc2)c1)*; Butanoyl(4-OPh) = O=C(CCCOc1ccccc1)*; dDab = NCC[C@@H](N)C(=O)O; Octanoyl = CCCCCCCC(=O)*; Dab = NCC[C@H](N)C(=O)O
Hi there, I'd appreciate the recorded MIC E. coli ATCC 25922 for every entry that follows.
I only need the number, in mg/L, no unit after it.

Measured MIC E. coli ATCC 25922 for this entry CC(C)C[C@@H]1NC(=O)[C@@H](Cc2ccccc2)NC(=O)[C@H](CCN)NC(=O)[C@@H](NC(=O)[C@H](CCN)NC(=O)[C@@H](NC(=O)c2cccc(-c3ccccc3)c2)[C@@H](C)O)CCNC(=O)[C@H]([C@@H](C)O)NC(=O)[C@H](CCN)NC(=O)[C@H](CCN)NC1=O [Compound 14] ({Benzoyl(3-Ph)}-T[Dab][Dab][Dab][dF]L[Dab][Dab]T; lactam 3-C) on E. coli ATCC 25922: 8

Hey, E. coli ATCC 25922 data for CC(C)C[C@@H]1NC(=O)[C@@H](Cc2ccccc2)NC(=O)[C@H](CCN)NC(=O)[C@@H](NC(=O)CNC(=O)[C@@H](NC(=O)CCCOc2ccccc2)[C@@H](C)O)CCNC(=O)[C@H]([C@@H](C)O)NC(=O)[C@H](CCN)NC(=O)[C@H](CCN)NC1=O [Compound 51] ({Butanoyl(4-OPh)}-TG[Dab][Dab][dF]L[Dab][Dab]T; lactam 3-C) : MIC E. coli ATCC 25922 came out at 2

The compound CCCCCCCC(=O)N[C@@H](CC(N)=O)C(=O)N[C@H](CCN)C(=O)N[C@H]1CCNC(=O)[C@H]([C@@H](C)O)NC(=O)[C@H](CCN)NC(=O)[C@H](CCN)NC(=O)[C@H](CC(C)C)NC(=O)[C@@H](Cc2ccccc2)NC(=O)[C@H](CCN)NC1=O [Compound 28] (Octanoyl-N[dDab][Dab][Dab][dF]L[Dab][Dab]T; lactam 3-C) , tested on E. coli ATCC 25922, showed MIC E. coli ATCC 25922 of 32
